- SYSTEM: ASK1 (Homo sapiens)
- Sequence (Q99683 1-1374): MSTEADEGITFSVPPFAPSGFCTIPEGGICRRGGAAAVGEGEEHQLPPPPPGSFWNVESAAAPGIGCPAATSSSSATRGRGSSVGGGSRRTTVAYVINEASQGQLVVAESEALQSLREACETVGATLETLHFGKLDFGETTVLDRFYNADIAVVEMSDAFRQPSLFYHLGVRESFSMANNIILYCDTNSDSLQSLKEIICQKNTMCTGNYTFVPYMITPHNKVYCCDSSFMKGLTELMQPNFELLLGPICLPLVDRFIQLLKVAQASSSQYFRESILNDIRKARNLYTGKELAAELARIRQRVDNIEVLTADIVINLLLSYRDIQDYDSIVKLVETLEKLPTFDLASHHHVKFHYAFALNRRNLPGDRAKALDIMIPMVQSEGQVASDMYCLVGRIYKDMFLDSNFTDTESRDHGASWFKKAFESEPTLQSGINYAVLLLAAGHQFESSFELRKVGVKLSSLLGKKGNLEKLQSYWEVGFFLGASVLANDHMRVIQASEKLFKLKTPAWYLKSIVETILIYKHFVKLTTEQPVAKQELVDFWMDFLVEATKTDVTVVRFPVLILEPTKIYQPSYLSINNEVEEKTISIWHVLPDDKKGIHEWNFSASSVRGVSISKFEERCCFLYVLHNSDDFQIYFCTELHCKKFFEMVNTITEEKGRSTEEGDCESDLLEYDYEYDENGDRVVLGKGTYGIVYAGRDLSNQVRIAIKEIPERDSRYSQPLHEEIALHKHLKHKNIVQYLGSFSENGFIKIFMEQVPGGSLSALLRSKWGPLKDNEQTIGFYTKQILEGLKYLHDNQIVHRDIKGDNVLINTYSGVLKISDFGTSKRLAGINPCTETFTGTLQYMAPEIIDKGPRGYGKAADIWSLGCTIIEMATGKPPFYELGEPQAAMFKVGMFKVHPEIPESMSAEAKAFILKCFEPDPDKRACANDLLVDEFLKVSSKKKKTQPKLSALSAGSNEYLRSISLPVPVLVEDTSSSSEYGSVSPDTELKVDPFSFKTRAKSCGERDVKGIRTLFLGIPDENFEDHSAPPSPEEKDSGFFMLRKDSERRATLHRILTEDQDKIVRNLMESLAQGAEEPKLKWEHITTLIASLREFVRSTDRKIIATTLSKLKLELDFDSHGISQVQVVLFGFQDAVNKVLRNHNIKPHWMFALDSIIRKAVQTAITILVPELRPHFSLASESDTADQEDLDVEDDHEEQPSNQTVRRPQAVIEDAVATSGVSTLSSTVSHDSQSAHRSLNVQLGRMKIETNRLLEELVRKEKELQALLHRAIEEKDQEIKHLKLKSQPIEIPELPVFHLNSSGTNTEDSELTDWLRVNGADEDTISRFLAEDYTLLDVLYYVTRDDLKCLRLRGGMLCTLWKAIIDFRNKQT
Please respond with reported IC50 for every item in the list.

The following molecules have reported results that may help.
MOLECULE: CC(C)n1cnnc1-c1cccc(NC(=O)c2ccc3nc(NC4CCCCC4)sc3c2)n1 [Example 24]
IC50: 10 to 100 nM

MOLECULE: CCN(CC)c1nc2cc(F)c(C(=O)Nc3cccc(-c4nncn4C(C)C)n3)cc2s1 [Example 13]
IC50: 1 to 10 nM

MOLECULE: CC(C)n1cnnc1-c1cccc(NC(=O)c2cc3sc(N(C)C4CCCCC4)nc3cc2F)n1 [Example 8]
IC50: 1 to 10 nM

MOLECULE: CC(C)n1cnnc1-c1cccc(NC(=O)c2cc3sc(N(C)C)nc3cn2)n1 [Example 64]
IC50: 10 to 100 nM

MOLECULE: CC(C)n1nnnc1-c1cccc(NC(=O)c2cc3sc(NC4CC4)nc3cc2F)n1 [Example 38]
IC50: > 1000 nM

MOLECULE: CC(C)n1cnnc1-c1cccc(NC(=O)c2cc3sc(N4CCN(C5CC5)CC4)nc3cc2F)n1 [Example 12]
IC50: 1 to 10 nM

MOLECULE: CC(C)n1nnnc1-c1cccc(NC(=O)c2cc3sc(C4CCC4)nc3cn2)n1 [Example 69]
IC50: > 1000 nM

MOLECULE: CC(C)n1cnnc1-c1cccc(NC(=O)c2cc3sc(N4CCOCC4)nc3cn2)n1 [Example 65]
IC50: 1 to 10 nM

Count: 4. Required value per item: IC50.
1. CC(C)n1cnnc1-c1cccc(NC(=O)c2ccc3nc(N4CCN(C5CC5)CC4)sc3c2)n1 [Example 55]
2. CC(C)n1cnnc1-c1cccc(NC(=O)c2ccc3nc(N4CC5(COC5)C4)sc3c2)n1 [Example 18]
3. CC(C)n1nnnc1-c1cccc(NC(=O)c2cc3sc(N4CCC(C(C)(C)C)CC4)nc3cc2F)n1 [Example 41]
4. CC(C)n1cnnc1-c1cccc(NC(=O)c2cc3sc(N4CCCC4)nc3cc2F)n1 [Example 50]

(A)
100 to 1000 nM
10 to 100 nM
> 1000 nM
1 to 10 nM
